System: Salmonella typhimurium TA98
Test: Reverse mutation test (Ames test), TA98
Type: cell-based
Settings: With addition of S9mix
ASSAY READOUT: Mutagenicity, TA98

{"columns": ["COMPOUND", "SYSTEM NAME", "MEASURED VALUE"],
 "data": [
  ["FCCCOc1ccc(-c2cn3cc(I)ccc3n2)cc1 [Compound I-2]", "Salmonella typhimurium TA98", "Negative"],
  ["FCCCOc1ccc(-c2cn3cc(I)cnc3n2)cc1 [Compound I-5]", "Salmonella typhimurium TA98", "Negative"],
  ["FCCOc1ccc(-c2cn3cc(I)ccc3n2)cc1 [Compound I-4]", "Salmonella typhimurium TA98", "Negative"],
  ["FCCCOc1ccc(-c2cn3cc(Br)ccc3n2)cc1 [Compound I-1]", "Salmonella typhimurium TA98", "Negative"]
]}

----------
Test system: Salmonella typhimurium TA100
Assay: Reverse mutation test (Ames test), TA100
Assay type: cell-based
Conditions: Without addition of S9mix

{"columns": ["MOLECULE SMILES", "Mutagenicity, TA100"],
 "data": [
  ["FCCCOc1ccc(-c2cn3cc(I)ccc3n2)cc1", "Negative"],
  ["FCCCOc1ccc(-c2cn3cc(Br)ccc3n2)cc1", "Negative"],
  ["FCCCOc1ccc(-c2cn3cc(I)cnc3n2)cc1", "Negative"],
  ["FCCOc1ccc(-c2cn3cc(I)ccc3n2)cc1", "Negative"]
]}
